molecular target: HDAC6 enzyme (Homo sapiens, UniProt Q9UBN7); construct: prepared by transducing full length HDAC1 and HDAC6 genes into Sf-9 insect cells; GST; purchased SignalChem; host or cells: Sf-9 insect cells; experiment: HDAC6 enzyme inhibitory assay (HDAC-Glo I/II Assay kit); assay type: biochemical; settings: 1 μM test compound; read-out: HDAC6 inhibitory rate (%) (1 μM)
Sequence (Q9UBN7 whole entry): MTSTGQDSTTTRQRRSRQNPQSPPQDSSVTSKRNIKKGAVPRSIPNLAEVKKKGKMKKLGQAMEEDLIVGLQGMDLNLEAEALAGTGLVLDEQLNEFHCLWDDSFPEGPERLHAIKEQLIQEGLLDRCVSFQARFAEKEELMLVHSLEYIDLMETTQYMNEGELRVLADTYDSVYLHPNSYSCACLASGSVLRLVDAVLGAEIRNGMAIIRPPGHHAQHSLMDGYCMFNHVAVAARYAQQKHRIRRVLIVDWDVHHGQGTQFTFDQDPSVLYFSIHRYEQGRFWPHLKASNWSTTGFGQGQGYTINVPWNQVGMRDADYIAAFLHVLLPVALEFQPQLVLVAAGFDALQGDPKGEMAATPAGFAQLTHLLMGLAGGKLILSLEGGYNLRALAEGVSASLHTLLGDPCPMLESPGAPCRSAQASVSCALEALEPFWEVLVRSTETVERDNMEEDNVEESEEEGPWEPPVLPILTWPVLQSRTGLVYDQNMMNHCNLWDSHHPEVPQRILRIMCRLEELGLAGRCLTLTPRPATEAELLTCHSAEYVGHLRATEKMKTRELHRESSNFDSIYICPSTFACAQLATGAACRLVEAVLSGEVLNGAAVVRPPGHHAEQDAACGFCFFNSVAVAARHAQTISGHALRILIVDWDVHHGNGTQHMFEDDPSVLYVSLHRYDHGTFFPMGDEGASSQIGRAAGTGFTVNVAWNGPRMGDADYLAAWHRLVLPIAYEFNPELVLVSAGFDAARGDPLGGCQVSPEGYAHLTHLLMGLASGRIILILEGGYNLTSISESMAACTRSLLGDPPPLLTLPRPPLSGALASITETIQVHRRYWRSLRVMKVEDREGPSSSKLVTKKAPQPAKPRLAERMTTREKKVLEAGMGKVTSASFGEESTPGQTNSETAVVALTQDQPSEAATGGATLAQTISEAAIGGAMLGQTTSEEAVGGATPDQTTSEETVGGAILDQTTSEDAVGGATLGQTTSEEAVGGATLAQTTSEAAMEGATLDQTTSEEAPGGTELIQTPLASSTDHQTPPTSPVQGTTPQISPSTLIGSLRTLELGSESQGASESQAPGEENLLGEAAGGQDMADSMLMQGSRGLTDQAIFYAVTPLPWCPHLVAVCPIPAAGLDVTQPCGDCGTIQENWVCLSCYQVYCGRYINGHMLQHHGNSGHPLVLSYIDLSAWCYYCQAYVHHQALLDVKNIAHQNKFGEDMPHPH
observed-property: inhibition at 1 µM (%)

compound: N#Cc1ccccc1C(=O)N1CCOC[C@@H]1CNC(=O)c1ccc(-c2noc(C(F)(F)F)n2)cn1
target: HDAC6 enzyme (Homo sapiens, UniProt Q9UBN7)
value-units: %
inhibition at 1 µM: 94

(a) O=C(NCC1COCCN1C(=O)c1cc(Cl)cc(Cl)c1)c1ccc(-c2noc(C(F)(F)F)n2)cn1 (stereo not drawn)
(b) Cn1cnc(C(=O)N2CCOCC2CNC(=O)c2ccc(-c3noc(C(F)(F)F)n3)s2)c1 (stereo not drawn)
Hi, I'm comparing a with b and wondering which one has the bigger number for inhibition at 1 µM. Any idea? Indicate your choice by writing its label. a
(a: 97%, b: 38%)

(I) O=C(NC[C@H]1COCCN1C(=O)N1CC2CCC(C1)O2)c1ccc(-c2noc(C(F)(F)F)n2)cc1
(II) CN(C(=O)C[C@H]1COCCN1C(=O)c1ccccc1)c1ccc(-c2noc(C(F)(F)F)n2)cc1
Hi, I'm comparing I with II and wondering which one has the bigger number for inhibition at 1 µM. Any idea? Indicate your choice by writing its label. I

---

molecular target: HDAC6 enzyme (Homo sapiens); construct: prepared by transducing full length HDAC1 and HDAC6 genes into Sf-9 insect cells; GST; purchased SignalChem; host or cells: Sf-9 insect cells; test: HDAC6 enzyme inhibitory assay (HDAC-Glo I/II Assay kit); type: biochemical; details: 1 μM test compound; read-out: HDAC6 inhibitory rate (%) (1 μM)
observed-property: inhibition at 1 µM (%)

Please review the following examples before continuing.
compound: O=C(NCC1CN(C(=O)c2ccccc2)CCN1C(=O)c1ccccc1)c1ccc(-c2noc(C(F)(F)F)n2)cc1 (stereo not shown)
reported-value: 99

compound: O=C(NC[C@H]1COCCN1C(=O)c1cc(F)cc(F)c1)c1ccc(-c2noc(C(F)(F)F)n2)cc1
reported-value: 100

compound: N#Cc1ccc(C(=O)N2CCOCC2CNC(=O)c2ccc(-c3noc(C(F)(F)F)n3)s2)cc1 (stereo not shown)
reported-value: 90

compound: N#Cc1cc(F)cc(C(=O)N2CCOC[C@H]2CNC(=O)c2ccc(-c3noc(C(F)(F)F)n3)cc2)c1
reported-value: 95

compound: O=C(NC[C@H]1COCCN1C(=O)N1CCCC2(COC2)C1)c1ccc(-c2noc(C(F)(F)F)n2)cc1
reported-value: 93

(1) O=C(NCC1COCCN1C(=O)N1CCCC1)c1ccc(-c2noc(C(F)(F)F)n2)cc1 (stereo in doubt)
(2) O=C(NCC1c2ccccc2CN1C(=O)c1cc(Cl)cc(Cl)c1)c1ccc(-c2noc(C(F)(F)F)n2)cc1 (stereo not shown)
Which has the smaller recorded inhibition at 1 µM, 1 or 2 ? Indicate your choice by writing its label. 2
(2: 66%, 1: 97%)

---

molecular target: HDAC1 enzyme (Homo sapiens); construct: prepared by transducing full length HDAC1 and HDAC6 genes into Sf-9 insect cells; GST; purchased SignalChem; host or cells: Sf-9 insect cells; test: HDAC1 enzyme inhibitory assay (HDAC-Glo I/II Assay kit); format: biochemical; details: 1 μM test compound; read-out: HDAC1 inhibitory rate (%) (1 μM)
observed-property: inhibition at 1 µM (%)

Please review the following examples before continuing.
compound: Cc1cc(C(=O)N2CCOC[C@@H]2CNC(=O)c2ccc(-c3noc(C(F)(F)F)n3)cc2)ccn1
value-units: %
inhibition at 1 µM: 13

compound: Cc1cccc(C(=O)N2CCOCC2CNC(=O)c2ccc(-c3noc(C(F)(F)F)n3)cc2)c1 (stereo not shown)
value-units: %
inhibition at 1 µM: 18

compound: O=C(NC[C@H]1COCCN1C(=O)C1C2CC3CC(C2)CC1C3)c1ccc(-c2noc(C(F)(F)F)n2)cn1 (stereo partly shown)
value-units: %
inhibition at 1 µM: 59

compound: O=C(NC[C@@H]1COCCN1C(=O)C1(c2ccccc2)CC1)c1ccc(-c2noc(C(F)(F)F)n2)cc1
value-units: %
inhibition at 1 µM: 6

(P) Cc1ccccc1C(=O)N1CCOCC1CNC(=O)c1ccc(-c2noc(C(F)(F)F)n2)cc1 (stereo not shown)
(Q) O=C(NC[C@@H]1COCCN1C(=O)C1CCCCC1)c1ccc(-c2noc(C(F)(F)F)n2)s1
(R) O=C(NC[C@H]1COCCN1C(=O)N1CCCC1CCO)c1ccc(-c2noc(C(F)(F)F)n2)cc1 (stereo partly shown)
Sort (3 compounds) by inhibition at 1 µM: min first. Please, when replying, give the labels in the order that was requested. R, P, Q
(R: 5%, P: 21%, Q: 30%)

---

molecular target: HDAC1 enzyme (Homo sapiens, UniProt Q13547); construct: prepared by transducing full length HDAC1 and HDAC6 genes into Sf-9 insect cells; GST; purchased SignalChem; host or cells: Sf-9 insect cells; experiment: HDAC1 enzyme inhibitory assay (HDAC-Glo I/II Assay kit); type: biochemical; details: 1 μM test compound; read-out: HDAC1 inhibitory rate (%) (1 μM)
Sequence (Q13547 whole entry): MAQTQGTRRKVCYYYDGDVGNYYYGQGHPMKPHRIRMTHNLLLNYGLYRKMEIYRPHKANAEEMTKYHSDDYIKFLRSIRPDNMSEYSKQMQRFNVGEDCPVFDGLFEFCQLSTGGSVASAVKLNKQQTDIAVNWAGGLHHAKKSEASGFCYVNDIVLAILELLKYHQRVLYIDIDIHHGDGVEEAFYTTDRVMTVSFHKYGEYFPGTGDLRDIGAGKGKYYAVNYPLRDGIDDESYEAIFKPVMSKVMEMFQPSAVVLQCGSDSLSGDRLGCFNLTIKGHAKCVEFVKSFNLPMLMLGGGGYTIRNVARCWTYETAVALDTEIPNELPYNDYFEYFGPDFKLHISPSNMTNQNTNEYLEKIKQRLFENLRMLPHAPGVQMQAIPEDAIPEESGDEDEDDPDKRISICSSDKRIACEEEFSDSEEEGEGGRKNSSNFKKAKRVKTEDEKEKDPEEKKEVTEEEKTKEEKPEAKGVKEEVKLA
observed-property: inhibition at 1 µM (%)

Please review the following examples before continuing.
compound: O=C(NCC1COCCN1C(=O)c1ccccc1)c1ccc(-c2noc(C(F)(F)F)n2)cc1F (stereo not drawn) [Example 177]
inhibition at 1 µM [%]: 27
--
compound: N#CC1(C(=O)N2CCOC[C@@H]2CNC(=O)c2ccc(-c3noc(C(F)(F)F)n3)cc2)CC1 [Example 55]
inhibition at 1 µM [%]: 17
--
compound: O=C(NCC1COCCN1C(=O)Cc1cccs1)c1ccc(-c2noc(C(F)(F)F)n2)cc1 (stereo not drawn) [Example 21]
inhibition at 1 µM [%]: 28

(a) O=C(NC[C@H]1COCCN1C(=O)N1CC[C@H](O)C1)c1ccc(-c2noc(C(F)(F)F)n2)cc1 [Example 274]
(b) Cc1nonc1C(=O)N1CCOC[C@H]1CNC(=O)c1ccc(-c2noc(C(F)(F)F)n2)cc1 [Example 132]
(c) O=C(NC[C@H]1COCCN1C(=O)C(F)(F)c1ccccc1)c1ccc(-c2noc(C(F)(F)F)n2)s1 [Example 261]
(d) CC(C)(C(=O)N1CCOCC1CNC(=O)c1ccc(-c2noc(C(F)(F)F)n2)cc1)c1ccccc1 (stereo in doubt) [Example 95]
Sort (4 compounds) by inhibition at 1 µM: min first. Please, when replying, give the labels in the order that was requested. a, b, d, c
(a: 3%, b: 16%, d: 30%, c: 53%)

(1) O=C(NCC1COCCN1C(=O)c1ccccc1F)c1ccc(-c2noc(C(F)(F)F)n2)cc1 (stereo not drawn) [Example 3]
(2) Cn1nc2ccccc2c1C(=O)N1CCOCC1CNC(=O)c1ccc(-c2noc(C(F)(F)F)n2)cc1 (stereo not drawn) [Example 33]
Hi, I'm comparing 1 with 2 and wondering which one has the bigger number for inhibition at 1 µM. Any idea? Indicate your choice by writing its label. 2
(2: 47%, 1: 19%)

(a) O=C(NCC1CCc2ccccc2N1C(=O)c1ccccc1)c1ccc(-c2noc(C(F)(F)F)n2)cc1 (stereo not drawn) [Example 173]
(b) C[C@H]1CCCN1C(=O)N1CCOC[C@@H]1CNC(=O)c1ccc(-c2noc(C(F)(F)F)n2)cc1 [Example 288]
(c) Cc1nonc1C(=O)N1CCOC[C@@H]1CNC(=O)c1ccc(-c2noc(C(F)(F)F)n2)cn1 [Example 194]
Please give the order of these compounds when sorted by inhibition at 1 µM, largest value leading. Please, when replying, give the labels in the order that was requested. c, a, b

---

biological target: HDAC1 enzyme (Homo sapiens, UniProt Q13547); construct: prepared by transducing full length HDAC1 and HDAC6 genes into Sf-9 insect cells; GST; purchased SignalChem; host or cells: Sf-9 insect cells; assay: HDAC1 enzyme inhibitory assay (HDAC-Glo I/II Assay kit); format: biochemical; details: 1 μM test compound; read-out: HDAC1 inhibitory rate (%) (1 μM)
observed-property: inhibition at 1 µM (%)

(A) Cc1oc2ccccc2c1C(=O)N1CCOC[C@@H]1CNC(=O)c1ccc(-c2noc(C(F)(F)F)n2)cc1 [Example 308]
(B) O=C(NC[C@H]1COCCN1C(=O)N1CCCCC1)c1ccc(-c2noc(C(F)(F)F)n2)cc1 [Example 89]
(C) COC[C@@H]1CCCN1C(=O)N1CCOC[C@@H]1CNC(=O)c1ccc(-c2noc(C(F)(F)F)n2)cc1 [Example 273]
Order the records by inhibition at 1 µM, with each subsequent value no larger than the one before. Please, when replying, give the labels in the order that was requested. A, B, C

(a) O=C(NCC1COCCN1C(=O)c1cc(Cl)cc(Cl)c1)c1ccc(-c2noc(C(F)(F)F)n2)cc1 (stereo in doubt) [Example 112]
(b) O=C(NC[C@H]1COCCN1C(=O)c1cc(Cl)cc(Cl)c1)c1ccc(-c2noc(C(F)(F)F)n2)cn1 [Example 183]
(c) O=C(NCC1COCCN1C(=O)c1cccc(Cl)c1)c1ccc(-c2noc(C(F)(F)F)n2)cc1 (stereo not shown) [Example 7]
Sort (3 compounds) by inhibition at 1 µM: min first. Please, when replying, give the labels in the order that was requested. a, c, b
(a: 16%, c: 24%, b: 57%)
